Just for reference, ChEMBL document CHEMBL1201862 is where these values come from.

# System: CCRF-CEM
# Test details: NCI tumour cell line growth inhibition, 48 h
Calls of active or inactive are those of the source. No stated cut-off is given here; in the data, active = GI50 up to about 1.1 µM and inactive = higher.
Pick one and only one: y (active), n (inactive)

See these solved cases before continuing.
CC1(C)OC[C@@H]([C@H](O)C2C=CC(=O)S2)O1 (stereo partly specified) : n
N#CC1C(=O)NC2=C(CCOc3c2ccc2ccccc32)C1c1ccc(F)cc1 (stereo unspecified) : n
Cn1c2ccccc2c2ccc3c(c21)C(=O)C(c1ccccc1)=CC3=O : n
O=C1/C(=C/c2ccc(Cl)cc2)N=C(c2ccccc2)N1c1nc2ccc(Sc3ccccc3)cc2[nH]1 : n
CCOC(=O)c1sc2c(c1OC(=O)c1ccc(OC)cc1)c(=O)n(-c1ccccc1)c(=S)n2-c1ccccc1 : n

Prompt: Just curious, what result did Cc1nc(N)nc2ccccc12 get here?
Completion: n

Prompt: Just curious, what result did CCN(CC)c1ccc2cc(-c3nnc(-c4ccccc4)o3)c(=O)oc2c1 get here?
Completion: n

Prompt: Just curious, what result did CNC(=O)OCc1nc(SC(C)C)n(C)c1COC(=O)NC get here?
Completion: n

Prompt: Just curious, what result did Cc1c(NC(=O)Nc2c(Cl)cccc2Cl)c(=O)n(-c2ccccc2)n1C get here?
Completion: n

Prompt: Just curious, what result did O=C1/C(=C/c2ccc(Cl)c(Cl)c2)CNC/C1=C\c1ccc(Cl)c(Cl)c1 get here?
Completion: n

Prompt: Just curious, what result did CCCCCCCCCCCCOCCOCCOCCOCCOCCOCC(=O)NC(Cc1ccccc1)C(=O)Oc1ccc([N+](=O)[O-])cc1 (stereo unspecified) get here?
Completion: n

Prompt: Just curious, what result did C=C1C(=O)O[C@H]2[C@H]3O[C@@H](C[C@@H]12)[C@](C)(O)CCCC(C)=CCC[C@H]3C get here?
Completion: y
